Here, compounds appear alongside Ki reported for Poly [ADP-ribose] polymerase 1 (Homo sapiens, UniProt P09874) in the literature.
Class assignment keyed on Ki, ranges class A = under 30 nM, class B = from 30 nM up to 50 nM, class C = 50 nM and over

[[record]]
compound = "NC(=O)c1cccc2[nH]c(-c3ccc(-c4ccccc4)cc3)nc12"
study_system = "Poly [ADP-ribose] polymerase 1 (Homo sapiens, UniProt P09874)"
group_label = "class A"

[[record]]
compound = "CC(C)N1CCCC(c2nc3cccc(C(N)=O)c3[nH]2)CC1 (stereo not given)"
study_system = "Poly [ADP-ribose] polymerase 1 (Homo sapiens, UniProt P09874)"
group_label = "class A"

[[record]]
compound = "CN1Cc2cccc(C(N)=O)c2C1=O"
study_system = "Poly [ADP-ribose] polymerase 1 (Homo sapiens, UniProt P09874)"
group_label = "class C"

[[record]]
compound = "NC(=O)c1cccc2c1C(=O)N(CC1CCNCC1)C2"
study_system = "Poly [ADP-ribose] polymerase 1 (Homo sapiens, UniProt P09874)"
group_label = "class C"

[[record]]
compound = "NC(=O)c1cccc2[nH]c(C3CCNCC3)nc12"
study_system = "Poly [ADP-ribose] polymerase 1 (Homo sapiens, UniProt P09874)"
group_label = "class A"

[[record]]
compound = "CC(C)N1CCC[C@H]1c1nc2c(C(N)=O)cccc2[nH]1"
study_system = "Poly [ADP-ribose] polymerase 1 (Homo sapiens, UniProt P09874)"
group_label = "class A"

[[record]]
compound = "CN1CCC(c2nc3cccc(C(N)=O)c3[nH]2)CC1"
study_system = "Poly [ADP-ribose] polymerase 1 (Homo sapiens, UniProt P09874)"
group_label = "class A"

[[record]]
compound = "CCN(CC)CCN1CCC(c2nc3cccc(C(N)=O)c3[nH]2)CC1"
study_system = "Poly [ADP-ribose] polymerase 1 (Homo sapiens, UniProt P09874)"
group_label = "class B"

[[record]]
compound = "NC(=O)c1cccc2[nH]c(C3CCN(C4CCCC4)CC3)nc12"
study_system = "Poly [ADP-ribose] polymerase 1 (Homo sapiens, UniProt P09874)"
group_label = "class A"

[[record]]
compound = "CN(C)S(=O)(=O)N1CCC(c2nc3c(C(N)=O)cccc3[nH]2)CC1"
study_system = "Poly [ADP-ribose] polymerase 1 (Homo sapiens, UniProt P09874)"
group_label = "class A"


Would you mind sorting CC(NC1CCCC1)c1nc2c(C(N)=O)cccc2[nH]1 (stereo not given) into the appropriate category?
class B

Record `CCNC(=O)NC(C)(C)c1nc2c(C(N)=O)cccc2[nH]1` — which class?
class C

// bin(item) where item = `O=c1[nH]c2cc(CNCc3ccccc3)ccc2n2cccc12`
class C

Would you mind sorting `Cc1nc2cccc3c2n1CCNC3=O` into the appropriate category?
class B

Class for `Cc1cccc2c1CCNC2=O` ?
class C

----------
The entries below pair molecules with Ki values for Poly [ADP-ribose] polymerase 1 (Homo sapiens), as found in several publications.
Just the number please, in nM, no unit attached.

Examples from the recorded data:
[[record]]
molecule = "CN1CCCC(c2nc3c(C(N)=O)cccc3[nH]2)C1 (stereo not given)"
recorded_endpoint = "Ki"
u = "nM"
measured_value = 30

[[record]]
molecule = "O=c1[nH]nc2c3c(cccc13)Oc1ccc(CN3CCC(O)CC3)cc1-2"
recorded_endpoint = "Ki"
u = "nM"
measured_value = 50


Field Ki (entry `O=C1CCC(=O)N1c1cc(Cc2n[nH]c(=O)c3ccccc23)ccc1F` ) reads 12

Please fill in: Ki reported for CN(C)Cc1ccc2c(c1)NC(=O)C1CCCN21 (stereo not given) = 190

Ki for CCN(CC)C(C)c1nc2c(C(N)=O)cccc2[nH]1 (stereo not given) is 61

// sample CCCNC(C)c1nc2c(C(N)=O)cccc2[nH]1 (stereo not given) , its Ki was 41

get_value(item= CC(C)N1CCCC(c2nc3cccc(C(N)=O)c3[nH]2)C1 (stereo not given) , readout=Ki) returns 22

The molecule listed as CC(C)N1CCC1c1nc2c(C(N)=O)cccc2[nH]1 (stereo not given) has a reported Ki of 110

Entry CC(NCCc1ccccc1)c1nc2c(C(N)=O)cccc2[nH]1 (stereo not given) ; Ki = 35

Entry under test: `CCCN1CCC(c2nc3c(C(N)=O)cccc3n2C)CC1` . Its Ki was 34
